These measurements were taken from ChEMBL document CHEMBL4316607.

target: Glutamate receptor ionotropic, NMDA 2B (Rattus norvegicus, UniProt Q00960); test: Displacement of [3H]-ifenprodil from NR2B receptor in rat brain cerebral cortex membranes incubated for 120 mins by liquid scintillation counting method
Sequence (Q00960 whole entry): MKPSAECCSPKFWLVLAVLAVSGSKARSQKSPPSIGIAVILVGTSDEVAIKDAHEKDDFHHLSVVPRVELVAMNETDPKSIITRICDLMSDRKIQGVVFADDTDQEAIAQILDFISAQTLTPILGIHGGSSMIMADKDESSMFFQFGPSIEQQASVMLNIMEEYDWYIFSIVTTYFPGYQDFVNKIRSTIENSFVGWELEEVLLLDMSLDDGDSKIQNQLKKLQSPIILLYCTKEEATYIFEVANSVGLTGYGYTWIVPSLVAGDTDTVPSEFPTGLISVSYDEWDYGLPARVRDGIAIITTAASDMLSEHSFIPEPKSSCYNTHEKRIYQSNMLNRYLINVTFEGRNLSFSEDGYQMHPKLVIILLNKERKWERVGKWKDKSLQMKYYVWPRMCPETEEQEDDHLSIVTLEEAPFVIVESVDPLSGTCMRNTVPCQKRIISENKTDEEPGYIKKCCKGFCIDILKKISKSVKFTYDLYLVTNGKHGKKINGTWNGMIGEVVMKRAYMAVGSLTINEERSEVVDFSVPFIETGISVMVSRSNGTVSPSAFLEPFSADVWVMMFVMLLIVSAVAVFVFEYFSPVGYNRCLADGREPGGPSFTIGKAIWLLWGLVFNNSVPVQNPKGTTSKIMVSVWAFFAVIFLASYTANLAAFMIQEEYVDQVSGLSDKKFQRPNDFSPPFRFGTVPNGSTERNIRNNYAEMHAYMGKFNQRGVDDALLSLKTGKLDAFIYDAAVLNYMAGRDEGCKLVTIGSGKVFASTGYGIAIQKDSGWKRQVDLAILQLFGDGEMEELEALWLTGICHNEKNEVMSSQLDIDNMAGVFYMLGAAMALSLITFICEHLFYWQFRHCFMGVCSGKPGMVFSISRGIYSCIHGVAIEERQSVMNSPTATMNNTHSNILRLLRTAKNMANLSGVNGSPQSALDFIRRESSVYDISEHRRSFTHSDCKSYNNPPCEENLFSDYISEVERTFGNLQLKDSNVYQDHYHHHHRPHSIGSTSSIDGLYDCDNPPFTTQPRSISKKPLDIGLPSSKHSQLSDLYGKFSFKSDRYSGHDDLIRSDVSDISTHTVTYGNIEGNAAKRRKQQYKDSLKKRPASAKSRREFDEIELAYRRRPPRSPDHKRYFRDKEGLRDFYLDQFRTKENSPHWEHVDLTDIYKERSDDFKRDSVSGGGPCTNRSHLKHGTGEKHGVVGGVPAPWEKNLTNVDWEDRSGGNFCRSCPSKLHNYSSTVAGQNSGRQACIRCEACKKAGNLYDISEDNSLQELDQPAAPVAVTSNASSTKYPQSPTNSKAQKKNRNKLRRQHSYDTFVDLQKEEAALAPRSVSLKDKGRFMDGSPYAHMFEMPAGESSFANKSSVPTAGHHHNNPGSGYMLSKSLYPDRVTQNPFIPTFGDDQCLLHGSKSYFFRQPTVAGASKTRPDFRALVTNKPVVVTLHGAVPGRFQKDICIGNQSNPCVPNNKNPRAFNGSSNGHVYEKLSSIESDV
MEASURED_METRIC: IC50 (nM)
Give bare numbers, in nM.

A selection of reference data follows.
COMPOUND	ASSAY_TARGET	OBSERVED_RESULT
C[C@@H]1CN(c2ccc(F)c(F)c2)CCN1C(=O)C(=O)Nc1ccc2[nH]c(=O)oc2c1	Glutamate receptor ionotropic, NMDA 2B (Rattus norvegicus, UniProt Q00960)	50.1
O=C(Nc1ccc2[nH]c(=O)oc2c1)C(=O)N1CCN(c2ccc(C(F)(F)F)cc2)CC1	Glutamate receptor ionotropic, NMDA 2B (Rattus norvegicus, UniProt Q00960)	25.1

Now for another entry.
Prompt line: Look up IC50: "O=C(Nc1ccc2[nH]c(=O)oc2c1)C(=O)N1CCN(c2ccc(F)c(Cl)c2)CC1"
Response line: 31.6

---

target: hERG (KCNH2) (Homo sapiens, UniProt Q12809); test: Inhibition of human ERG expressed in HEK293 cells at 1 uM; type: cell-based; details: HEK293 cells expressing human ERG
Sequence (Q12809 whole entry): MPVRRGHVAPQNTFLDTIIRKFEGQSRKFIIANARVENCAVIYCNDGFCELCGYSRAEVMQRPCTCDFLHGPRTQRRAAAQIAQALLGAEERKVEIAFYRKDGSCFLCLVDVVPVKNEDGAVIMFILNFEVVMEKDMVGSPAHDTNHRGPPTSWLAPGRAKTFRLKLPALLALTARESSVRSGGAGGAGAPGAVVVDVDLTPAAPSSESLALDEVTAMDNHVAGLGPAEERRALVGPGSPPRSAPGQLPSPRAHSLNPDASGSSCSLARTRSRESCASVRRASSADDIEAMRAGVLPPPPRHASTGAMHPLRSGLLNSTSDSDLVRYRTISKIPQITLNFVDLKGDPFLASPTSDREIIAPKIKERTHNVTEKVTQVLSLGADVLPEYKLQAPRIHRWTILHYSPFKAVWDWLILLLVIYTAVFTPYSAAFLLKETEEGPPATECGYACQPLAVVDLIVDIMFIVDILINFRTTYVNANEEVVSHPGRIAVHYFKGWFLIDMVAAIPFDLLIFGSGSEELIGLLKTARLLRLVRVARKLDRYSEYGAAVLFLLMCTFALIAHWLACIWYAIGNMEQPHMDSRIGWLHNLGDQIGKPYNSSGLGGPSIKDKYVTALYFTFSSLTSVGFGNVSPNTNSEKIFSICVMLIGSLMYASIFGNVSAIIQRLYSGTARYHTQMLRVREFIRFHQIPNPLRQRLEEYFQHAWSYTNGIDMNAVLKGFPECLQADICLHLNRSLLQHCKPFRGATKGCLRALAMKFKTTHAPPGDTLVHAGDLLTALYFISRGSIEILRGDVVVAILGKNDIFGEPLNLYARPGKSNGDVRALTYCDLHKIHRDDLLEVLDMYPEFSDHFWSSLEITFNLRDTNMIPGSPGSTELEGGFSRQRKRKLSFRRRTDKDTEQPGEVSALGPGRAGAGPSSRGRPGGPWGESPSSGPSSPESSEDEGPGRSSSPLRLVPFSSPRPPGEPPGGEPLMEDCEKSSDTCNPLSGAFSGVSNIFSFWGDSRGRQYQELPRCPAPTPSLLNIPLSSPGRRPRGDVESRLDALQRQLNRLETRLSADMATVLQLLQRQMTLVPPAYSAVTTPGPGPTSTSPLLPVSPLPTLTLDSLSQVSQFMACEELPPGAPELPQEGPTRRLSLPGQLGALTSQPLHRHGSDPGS
MEASURED_METRIC: inhibition at 1 µM (%)
Give bare numbers, in %.

COMPOUND	ASSAY_TARGET	UNIT_TEXT	OBSERVED_RESULT
C[C@@H]1CN(C(=O)C(=O)Nc2ccc3[nH]c(=O)oc3c2)CCN1c1ccc(Cl)cc1	hERG (KCNH2) (Homo sapiens, UniProt Q12809)	%	25
C[C@@H]1CN(C(=O)C(=O)Nc2ccc3[nH]c(=O)oc3c2)CCN1c1ccc(Cl)c(F)c1	hERG (KCNH2) (Homo sapiens, UniProt Q12809)	%	10
C[C@@H]1CN(c2ccc(Cl)cc2)CCN1C(=O)C(=O)Nc1ccc2[nH]c(=O)oc2c1	hERG (KCNH2) (Homo sapiens, UniProt Q12809)	%	36

Okay, now this compound:
Prompt line: What inhibition at 1 µM value was documented for this compound, "C[C@@H]1CN(c2ccc(Cl)c(F)c2)CCN1C(=O)C(=O)Nc1ccc2[nH]c(=O)oc2c1" ?
Response line: 29

---

target: Glutamate receptor ionotropic, NMDA 2B (Mus musculus, UniProt P35438+Q01097); experiment: Antagonist activity at mouse NR2B receptor expressed in HEK293 cells co-expressing NR1 subunit assessed as reduction in glutamic acid/glycine-induced calcium ion influx by fluorescence based assay
Sequence (Q01097 whole entry, one chain of several): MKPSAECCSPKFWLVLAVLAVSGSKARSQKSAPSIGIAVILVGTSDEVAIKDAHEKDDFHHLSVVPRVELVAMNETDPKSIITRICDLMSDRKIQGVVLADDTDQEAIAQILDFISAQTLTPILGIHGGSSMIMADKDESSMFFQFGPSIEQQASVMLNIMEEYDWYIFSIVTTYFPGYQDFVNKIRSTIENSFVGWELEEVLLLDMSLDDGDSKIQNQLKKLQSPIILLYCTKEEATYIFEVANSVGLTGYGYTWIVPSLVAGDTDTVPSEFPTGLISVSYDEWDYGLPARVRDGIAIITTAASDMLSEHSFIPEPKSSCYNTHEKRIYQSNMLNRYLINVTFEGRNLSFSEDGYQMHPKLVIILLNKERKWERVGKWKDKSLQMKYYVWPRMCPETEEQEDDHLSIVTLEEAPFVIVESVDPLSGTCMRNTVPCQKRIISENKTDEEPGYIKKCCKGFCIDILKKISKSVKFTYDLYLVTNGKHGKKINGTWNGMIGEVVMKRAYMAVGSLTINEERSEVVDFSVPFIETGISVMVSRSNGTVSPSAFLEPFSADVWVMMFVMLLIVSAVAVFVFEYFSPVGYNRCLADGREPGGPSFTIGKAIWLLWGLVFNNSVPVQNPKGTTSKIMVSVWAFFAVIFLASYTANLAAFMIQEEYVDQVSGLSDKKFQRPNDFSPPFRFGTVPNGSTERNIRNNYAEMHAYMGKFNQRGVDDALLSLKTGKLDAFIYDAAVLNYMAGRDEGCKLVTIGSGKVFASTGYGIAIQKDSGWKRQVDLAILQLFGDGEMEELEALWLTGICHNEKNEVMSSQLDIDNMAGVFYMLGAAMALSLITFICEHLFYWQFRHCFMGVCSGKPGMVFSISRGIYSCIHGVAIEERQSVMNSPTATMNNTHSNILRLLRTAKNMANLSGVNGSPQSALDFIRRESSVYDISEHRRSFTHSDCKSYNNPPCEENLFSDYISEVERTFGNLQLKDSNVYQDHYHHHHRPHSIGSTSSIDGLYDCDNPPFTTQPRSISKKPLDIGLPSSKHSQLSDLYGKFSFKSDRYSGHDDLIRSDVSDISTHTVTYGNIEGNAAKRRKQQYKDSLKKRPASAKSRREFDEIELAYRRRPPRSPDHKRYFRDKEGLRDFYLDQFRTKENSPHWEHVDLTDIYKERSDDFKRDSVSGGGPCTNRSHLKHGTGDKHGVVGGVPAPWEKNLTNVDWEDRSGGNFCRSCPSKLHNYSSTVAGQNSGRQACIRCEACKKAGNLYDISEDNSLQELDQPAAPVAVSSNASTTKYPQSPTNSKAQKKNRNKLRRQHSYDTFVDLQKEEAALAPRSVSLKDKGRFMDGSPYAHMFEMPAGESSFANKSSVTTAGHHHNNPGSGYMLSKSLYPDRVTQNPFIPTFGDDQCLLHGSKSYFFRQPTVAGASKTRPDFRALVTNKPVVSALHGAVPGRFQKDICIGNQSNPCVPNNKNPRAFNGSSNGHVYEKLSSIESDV
Threshold 0.02 µM. IC50 below it: T. IC50 at it or above: F.

Prompt line: Input "COc1ccc(N2CCN(C(=O)C(=O)Nc3ccc4[nH]c(=O)oc4c3)CC2)cc1F" ; condition: IC50 strictly below 0.02 µM. Does it hold?
Response line: T

Prompt line: Field: below-cutoff. Rule: recorded IC50 strictly less than 0.02 µM. Subject: "O=C(Nc1ccc2[nH]c(=O)oc2c1)C(=O)N1CCN(c2ccc(F)c(Cl)c2)CC1"
Response line: T

Prompt line: Check if IC50 falls below 0.02 µM for "O=C(c1cc(-c2ccc(=O)[nH]c2)on1)N1CCC(Cc2ccc(F)cc2)CC1" .
Response line: F

---

assay: Oral bioavailability in Sprague-Dawley rat at 1 mg/kg dosed via cassette dosing; format: ADME, organism-based; conditions: in vivo
Binary classification by bioavailability, with 30% as an inclusive lower bound for Condition met; all other cases are Condition not met.

COMPOUND	LABEL_CLASS
C[C@@H]1CN(C(=O)C(=O)Nc2ccc3[nH]c(=O)oc3c2)CCN1c1ccc(Cl)cc1	Condition met
C[C@@H]1CN(c2ccc(F)c(F)c2)CCN1C(=O)C(=O)Nc1ccc2[nH]c(=O)oc2c1	Condition met
O=C(c1cc(-c2ccc(=O)[nH]c2)on1)N1CCC(Cc2ccc(Cl)cc2)CC1	Condition not met
C[C@@H]1CN(c2ccc(Cl)cc2)CCN1C(=O)C(=O)Nc1ccc2[nH]c(=O)oc2c1	Condition met

Prompt line: Please check the record "O=C(c1cc(-c2ccc(=O)[nH]c2)on1)N1CCC(Cc2ccc(F)cc2)CC1" and state if its bioavailability is at or above 30%.
Response line: Condition not met

Prompt line: Confirm if bioavailability reported for the compound "O=C(Nc1ccc2[nH]c(=O)oc2c1)C(=O)N1CCN(c2ccc(F)c(Cl)c2)CC1" is 30% or above.
Response line: Condition not met

Prompt line: Quick check: does "C[C@@H]1CN(C(=O)C(=O)Nc2ccc3[nH]c(=O)oc3c2)CCN1c1ccc(Cl)c(F)c1" have bioavailability greater than or equal to 30%?
Response line: Condition met

Prompt line: Please indicate if the recorded bioavailability for "C[C@@H]1CN(C(=O)C(=O)Nc2ccc3[nH]c(=O)oc3c2)CCN1c1ccc(F)c(F)c1" meets or exceeds 30%.
Response line: Condition not met

Prompt line: State whether the measured bioavailability reaches 30%, counting equality as reaching it, for "O=C(Nc1ccc2[nH]c(=O)oc2c1)C(=O)N1CCN(c2ccc(Cl)cc2)CC1"
Response line: Condition not met

Prompt line: Does the compound "O=C(Nc1ccc2[nH]c(=O)oc2c1)C(=O)N1CCN(c2ccc(C(F)(F)F)c(F)c2)CC1" have recorded bioavailability that is 30% or more?
Response line: Condition not met

Prompt line: Say whether "O=C(c1cc(-c2cc[nH]n2)on1)N1CCC(Cc2ccc(Cl)cc2)CC1" shows bioavailability of 30% or more.
Response line: Condition not met

Prompt line: Exam item: decide whether the reported bioavailability for "O[C@]1(Cc2cc(-c3cn[nH]c3)on2)CC[C@@H](Cc2ccc(C(F)(F)F)cc2)CC1" is at least 30%.
Response line: Condition met

Prompt line: // inclusive: bioavailability at least 30%? input: "O=C(c1cc(-c2ccc(=O)[nH]c2)on1)N1CCC(Cc2ccccc2)CC1"
Response line: Condition not met

Prompt line: Hi team, for "O=C(Nc1ccc2[nH]c(=O)oc2c1)C(=O)N1CCN(c2ccc(F)cc2)CC1" , is the recorded bioavailability at or above 30%?
Response line: Condition met

Prompt line: Check if bioavailability >= 30% (inclusive). Item: "O=C(Nc1ccc2[nH]c(=O)oc2c1)C(=O)N1CCN(c2ccc(Cl)c(F)c2)CC1"
Response line: Condition not met

Prompt line: Item "O=C(Nc1ccc2[nH]c(=O)oc2c1)C(=O)N1CCN(c2ccc(F)c(F)c2)CC1" with bioavailability of 30% or above?
Response line: Condition not met

Prompt line: API: above_or_equal(metric=bioavailability, cutoff=30%) for item "O=C(c1cc(-c2cc[nH]n2)on1)N1CCC(Cc2ccccc2)CC1"
Response line: Condition not met

Prompt line: Hi, just wondering whether "O=C(Nc1ccc2[nH]c(=O)oc2c1)C(=O)N1CCN(c2ccc(C(F)(F)F)cc2)CC1" shows bioavailability of 30% or higher.
Response line: Condition not met

Prompt line: Item "COc1ccc(N2CCN(C(=O)C(=O)Nc3ccc4[nH]c(=O)oc4c3)CC2)cc1F" with bioavailability of 30% or above?
Response line: Condition not met

Prompt line: Textbook exercise: given the entry "O=C(Nc1ccc2[nH]c(=O)oc2c1)C(=O)N1CCN(Cc2ccc(Cl)cc2)CC1" , state whether its bioavailability is greater than or equal to 30%.
Response line: Condition not met
